- Assayed target: Gal-1 (Homo sapiens)
- Construct: made in house; host or cells: E. coli BL21(DE3)
- Sequence (P09382 whole entry): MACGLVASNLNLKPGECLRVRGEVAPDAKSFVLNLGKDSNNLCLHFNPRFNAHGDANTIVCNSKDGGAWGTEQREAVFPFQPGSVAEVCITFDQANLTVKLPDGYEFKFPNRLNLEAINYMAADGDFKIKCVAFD
- Experiment description: Competition pull-down with lactose
- Assay type: binding
- Test settings: H14 library; lactose 10 mM; read-out: Surface mapping KD (apparent), competition
Parameter measured: Kd (µM)
Numbers only, in µM.

// known answers, use as guide
• C[C@@H](O)[C@@H](CC(=O)N[C@H]1CCCC[C@@H]1C(=O)N[C@H]1CCCC[C@@H]1C(=O)N[C@@H](CCC(=O)O)CC(=O)N[C@H]1CCCC[C@@H]1C(N)=O)NC(=O)[C@H]1CCCC[C@@H]1N = 366
• C[C@@H](O)[C@@H](CC(=O)N[C@H]1CCCC[C@@H]1C(N)=O)NC(=O)[C@H]1CCCC[C@@H]1NC(=O)[C@H]1CCCC[C@@H]1NC(=O)C[C@@H](NC(=O)[C@H]1CCCC[C@@H]1N)[C@@H](C)O = 431
• NC(=O)[C@H]1CCCC[C@@H]1NC(=O)C[C@H](CCC(=O)O)NC(=O)[C@H]1CCCC[C@@H]1NC(=O)[C@H]1CCCC[C@@H]1NC(=O)C[C@H](CC(=O)O)NC(=O)[C@H]1CCCC[C@@H]1N = 318
• C[C@@H](O)[C@@H](CC(=O)N[C@H]1CCCC[C@@H]1C(=O)N[C@H]1CCCC[C@@H]1C(=O)N[C@H](CC(=O)N[C@H]1CCCC[C@@H]1C(N)=O)Cc1ccccc1)NC(=O)[C@H]1CCCC[C@@H]1N = 220

The recorded Kd for C[C@@H](O)[C@@H](CC(=O)N[C@H]1CCCC[C@@H]1C(=O)N[C@H]1CCCC[C@@H]1C(=O)N[C@@H](CC(=O)O)CC(=O)N[C@H]1CCCC[C@@H]1C(N)=O)NC(=O)[C@H]1CCCC[C@@H]1N is 415

* * *

- Assayed target: CaM (Bos taurus, UniProt P62157)
- Construct: made in house; host or cells: E. coli BL21 (DE3)
- Experiment description: Competition pull-down with native ligand TRPV1-Ct15
- Type: binding, bovine
- Test settings: H14 library; competitor peptide 200 µM; read-out: Surface mapping KD (apparent), competition
For each record, write down the corresponding pKd.
Numbers only, as −log10 of the molar value.

* CSCC[C@@H](CC(=O)N[C@H]1CCCC[C@@H]1C(N)=O)NC(=O)[C@H]1CCCC[C@@H]1NC(=O)[C@H]1CCCC[C@@H]1NC(=O)C[C@H](CC(N)=O)NC(=O)[C@H]1CCCC[C@@H]1N | 3.34
* NC(=O)CC[C@@H](CC(=O)N[C@H]1CCCC[C@@H]1C(N)=O)NC(=O)[C@H]1CCCC[C@@H]1NC(=O)[C@H]1CCCC[C@@H]1NC(=O)C[C@H](Cc1c[nH]c2ccccc12)NC(=O)[C@H]1CCCC[C@@H]1N | 3.31
* C[C@@H](CC(=O)N[C@H]1CCCC[C@@H]1C(N)=O)NC(=O)[C@H]1CCCC[C@@H]1NC(=O)[C@H]1CCCC[C@@H]1NC(=O)C[C@H](Cc1ccccc1)NC(=O)[C@H]1CCCC[C@@H]1N | 3.51
* CC[C@H](C)[C@@H](CC(=O)N[C@H]1CCCC[C@@H]1C(=O)N[C@H]1CCCC[C@@H]1C(=O)N[C@H](CC(=O)N[C@H]1CCCC[C@@H]1C(N)=O)Cc1ccccc1)NC(=O)[C@H]1CCCC[C@@H]1N | 3.99

Kindly review the next compound as well.
The recorded pKd for NC(=O)CC[C@@H](CC(=O)N[C@H]1CCCC[C@@H]1C(N)=O)NC(=O)[C@H]1CCCC[C@@H]1NC(=O)[C@H]1CCCC[C@@H]1NC(=O)C[C@H](CO)NC(=O)[C@H]1CCCC[C@@H]1N is 3.53

* * *

- Assayed target: S100A4 (Homo sapiens, UniProt P26447)
- Construct: made in house; host or cells: Escherichia coli BL21(DE3)
- Sequence (P26447 whole entry): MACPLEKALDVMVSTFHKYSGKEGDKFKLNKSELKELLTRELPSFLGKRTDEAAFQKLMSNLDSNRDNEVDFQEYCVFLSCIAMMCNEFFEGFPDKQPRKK
- Experiment description: Pull-down assay with immobilized protein and LSM libraries
- Assay type: binding
- Test settings: H14 library; 1:1 binding assumed; read-out: Surface mapping KD (apparent)
Parameter measured: Kd (µM)
Answers are plain numbers, in µM.

* NC(=O)[C@H]1CCCC[C@@H]1NC(=O)C[C@H](Cc1ccc(O)cc1)NC(=O)[C@H]1CCCC[C@@H]1NC(=O)[C@H]1CCCC[C@@H]1NC(=O)C[C@H](Cc1ccccc1)NC(=O)[C@H]1CCCC[C@@H]1N | 57

The recorded Kd for NC(=O)[C@H]1CCCC[C@@H]1NC(=O)C[C@H](Cc1c[nH]c2ccccc12)NC(=O)[C@H]1CCCC[C@@H]1NC(=O)[C@H]1CCCC[C@@H]1NC(=O)C[C@H](Cc1ccc(O)cc1)NC(=O)[C@H]1CCCC[C@@H]1N is 25

* * *

- Assayed target: S100B (Homo sapiens)
- Construct: made in house; host or cells: Escherichia coli BL21(DE3)
- Sequence (P04271 whole entry): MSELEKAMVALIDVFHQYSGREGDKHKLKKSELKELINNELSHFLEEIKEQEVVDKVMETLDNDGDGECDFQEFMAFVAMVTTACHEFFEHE
- Experiment description: Pull-down assay with immobilized protein and LSM libraries
- Assay type: binding
- Test settings: H14 library; 1:1 binding assumed; read-out: Surface mapping KD (apparent)
Binarize Kd at 60 µM; below is criterion met, at or above is criterion not met.

- N=C(N)NCCC[C@@H](CC(=O)N[C@H]1CCCC[C@@H]1C(=O)N[C@H]1CCCC[C@@H]1C(=O)N[C@@H](CCC(N)=O)CC(=O)N[C@H]1CCCC[C@@H]1C(N)=O)NC(=O)[C@H]1CCCC[C@@H]1N: criterion not met
- NCCCC[C@@H](CC(=O)N[C@H]1CCCC[C@@H]1C(N)=O)NC(=O)[C@H]1CCCC[C@@H]1NC(=O)[C@H]1CCCC[C@@H]1NC(=O)C[C@H](CCC(N)=O)NC(=O)[C@H]1CCCC[C@@H]1N: criterion not met

Task: Lab note: confirm whether the reported Kd for this molecule is below 60 µM, equality not counting. molecule: CC[C@H](C)[C@@H](CC(=O)N[C@H]1CCCC[C@@H]1C(=O)N[C@H]1CCCC[C@@H]1C(=O)N[C@@H](CCSC)CC(=O)N[C@H]1CCCC[C@@H]1C(N)=O)NC(=O)[C@H]1CCCC[C@@H]1N
Output: criterion met

Task: Lab note: confirm whether the reported Kd for this molecule is below 60 µM, equality not counting. molecule: C[C@@H](CC(=O)N[C@H]1CCCC[C@@H]1C(N)=O)NC(=O)[C@H]1CCCC[C@@H]1NC(=O)[C@H]1CCCC[C@@H]1NC(=O)C[C@H](Cc1c[nH]c2ccccc12)NC(=O)[C@H]1CCCC[C@@H]1N
Output: criterion met

Task: Lab note: confirm whether the reported Kd for this molecule is below 60 µM, equality not counting. molecule: N=C(N)NCCC[C@@H](CC(=O)N[C@H]1CCCC[C@@H]1C(N)=O)NC(=O)[C@H]1CCCC[C@@H]1NC(=O)[C@H]1CCCC[C@@H]1NC(=O)C[C@H](CCCNC(=N)N)NC(=O)[C@H]1CCCC[C@@H]1N
Output: criterion met

* * *

For each record, write down the corresponding Kd.
- Assayed target: Gal-1 (Homo sapiens)
- Construct: made in house; host or cells: E. coli BL21(DE3)
- Experiment description: Pull-down assay with immobilized protein and LSM libraries
- Format: binding
- Test settings: H12 library; 1:1 binding assumed; read-out: Surface mapping KD (apparent)
- Procedure: Pull-down assays with immobilized test proteins and foldameric LSM libraries were carried out. Proteins were equilibrated with LSM probes, and equilibrium bound fractions (FB) were determined from the unbound fractions measured by HPLC-MS methods. Hits were corrected with background binding of the resin. […] MS data analysis. […] Using these processing setups, all raw data files were reprocessed together and analyzed. […]
Numbers only, in µM.

* NCCCC[C@@H](CC(=O)N[C@H]1CCC[C@@H]1C(=O)N[C@H]1CCC[C@@H]1C(=O)N[C@H](CC(=O)N[C@H]1CCC[C@@H]1C(=O)N[C@H]1CCC[C@@H]1C(N)=O)Cc1ccc(O)cc1)NC(=O)[C@H]1CCC[C@@H]1NC(=O)[C@H]1CCC[C@@H]1N [H12 KY] | 227

The recorded Kd for CC[C@H](C)[C@@H](CC(=O)N[C@H]1CCC[C@@H]1C(=O)N[C@H]1CCC[C@@H]1C(N)=O)NC(=O)[C@H]1CCC[C@@H]1NC(=O)[C@H]1CCC[C@@H]1NC(=O)C[C@H](CCCNC(=N)N)NC(=O)[C@H]1CCC[C@@H]1NC(=O)[C@H]1CCC[C@@H]1N [H12 RI] is 194

* * *

- Assayed target: S100A4 (Homo sapiens, UniProt P26447)
- Construct: made in house; host or cells: Escherichia coli BL21(DE3)
- Experiment description: Pull-down assay with immobilized protein and LSM libraries
- Format: binding
- Test settings: H14 library; 1:1 binding assumed; read-out: Surface mapping KD (apparent)
- Experimental: Pull-down assays with immobilized test proteins and foldameric LSM libraries were carried out. Proteins were equilibrated with LSM probes, and equilibrium bound fractions (FB) were determined from the unbound fractions measured by HPLC-MS methods. Hits were corrected with background binding of the resin. […] MS data analysis. […] Using these processing setups, all raw data files were reprocessed together and analyzed. […]
Parameter measured: Kd

* CC[C@H](C)[C@@H](CC(=O)N[C@H]1CCCC[C@@H]1C(N)=O)NC(=O)[C@H]1CCCC[C@@H]1NC(=O)[C@H]1CCCC[C@@H]1NC(=O)C[C@H](CCCCN)NC(=O)[C@H]1CCCC[C@@H]1N [H14 KI] | 85 µM
* CSCC[C@@H](CC(=O)N[C@H]1CCCC[C@@H]1C(=O)N[C@H]1CCCC[C@@H]1C(=O)N[C@H](CC(=O)N[C@H]1CCCC[C@@H]1C(N)=O)Cc1ccc(O)cc1)NC(=O)[C@H]1CCCC[C@@H]1N [H14 MY] | 90 µM
* CC(C)C[C@@H](CC(=O)N[C@H]1CCCC[C@@H]1C(N)=O)NC(=O)[C@H]1CCCC[C@@H]1NC(=O)[C@H]1CCCC[C@@H]1NC(=O)C[C@H](CCCCN)NC(=O)[C@H]1CCCC[C@@H]1N [H14 KL] | 85 µM
* CC(C)[C@@H](CC(=O)N[C@H]1CCCC[C@@H]1C(=O)N[C@H]1CCCC[C@@H]1C(=O)N[C@@H](CCCNC(=N)N)CC(=O)N[C@H]1CCCC[C@@H]1C(N)=O)NC(=O)[C@H]1CCCC[C@@H]1N [H14 VR] | 284 µM
* NC(=O)C[C@@H](CC(=O)N[C@H]1CCCC[C@@H]1C(N)=O)NC(=O)[C@H]1CCCC[C@@H]1NC(=O)[C@H]1CCCC[C@@H]1NC(=O)C[C@H](Cc1ccc(O)cc1)NC(=O)[C@H]1CCCC[C@@H]1N [H14 YN] | 435 µM

I have 2 molecules here; please give me Kd for each one.
1. NC(=O)[C@H]1CCCC[C@@H]1NC(=O)C[C@H](Cc1ccccc1)NC(=O)[C@H]1CCCC[C@@H]1NC(=O)[C@H]1CCCC[C@@H]1NC(=O)C[C@H](Cc1c[nH]c2ccccc12)NC(=O)[C@H]1CCCC[C@@H]1N [H14 WF]
2. C[C@@H](O)[C@@H](CC(=O)N[C@H]1CCCC[C@@H]1C(=O)N[C@H]1CCCC[C@@H]1C(=O)N[C@H](CC(=O)N[C@H]1CCCC[C@@H]1C(N)=O)Cc1ccccc1)NC(=O)[C@H]1CCCC[C@@H]1N [H14 TF]

Output:
["10 µM", "43 µM"]

I have 8 molecules here; please give me Kd for each one.
1. CC[C@H](C)[C@@H](CC(=O)N[C@H]1CCCC[C@@H]1C(N)=O)NC(=O)[C@H]1CCCC[C@@H]1NC(=O)[C@H]1CCCC[C@@H]1NC(=O)C[C@H](Cc1c[nH]c2ccccc12)NC(=O)[C@H]1CCCC[C@@H]1N [H14 WI]
2. CSCC[C@@H](CC(=O)N[C@H]1CCCC[C@@H]1C(N)=O)NC(=O)[C@H]1CCCC[C@@H]1NC(=O)[C@H]1CCCC[C@@H]1NC(=O)C[C@H](CCC(N)=O)NC(=O)[C@H]1CCCC[C@@H]1N [H14 QM]
3. CSCC[C@@H](CC(=O)N[C@H]1CCCC[C@@H]1C(=O)N[C@H]1CCCC[C@@H]1C(=O)N[C@@H](C)CC(=O)N[C@H]1CCCC[C@@H]1C(N)=O)NC(=O)[C@H]1CCCC[C@@H]1N [H14 MA]
4. CC[C@H](C)[C@@H](CC(=O)N[C@H]1CCCC[C@@H]1C(=O)N[C@H]1CCCC[C@@H]1C(=O)N[C@H](CC(=O)N[C@H]1CCCC[C@@H]1C(N)=O)C(C)C)NC(=O)[C@H]1CCCC[C@@H]1N [H14 IV]
5. C[C@@H](CC(=O)N[C@H]1CCCC[C@@H]1C(N)=O)NC(=O)[C@H]1CCCC[C@@H]1NC(=O)[C@H]1CCCC[C@@H]1NC(=O)C[C@H](Cc1ccc(O)cc1)NC(=O)[C@H]1CCCC[C@@H]1N [H14 YA]
6. CC(C)C[C@@H](CC(=O)N[C@H]1CCCC[C@@H]1C(N)=O)NC(=O)[C@H]1CCCC[C@@H]1NC(=O)[C@H]1CCCC[C@@H]1NC(=O)C[C@H](Cc1ccc(O)cc1)NC(=O)[C@H]1CCCC[C@@H]1N [H14 YL]
7. CC(C)C[C@@H](CC(=O)N[C@H]1CCCC[C@@H]1C(=O)N[C@H]1CCCC[C@@H]1C(=O)N[C@@H](CCCNC(=N)N)CC(=O)N[C@H]1CCCC[C@@H]1C(N)=O)NC(=O)[C@H]1CCCC[C@@H]1N [H14 LR]
8. CSCC[C@@H](CC(=O)N[C@H]1CCCC[C@@H]1C(=O)N[C@H]1CCCC[C@@H]1C(=O)N[C@@H](CC(=O)O)CC(=O)N[C@H]1CCCC[C@@H]1C(N)=O)NC(=O)[C@H]1CCCC[C@@H]1N [H14 MD]

Output:
10 µM
448 µM
72 µM
3 µM
217 µM
19 µM
138 µM
423 µM

I have 3 molecules here; please give me Kd for each one.
1. CC[C@H](C)[C@@H](CC(=O)N[C@H]1CCCC[C@@H]1C(N)=O)NC(=O)[C@H]1CCCC[C@@H]1NC(=O)[C@H]1CCCC[C@@H]1NC(=O)C[C@@H](NC(=O)[C@H]1CCCC[C@@H]1N)C(C)C [H14 VI]
2. CC(C)C[C@@H](CC(=O)N[C@H]1CCCC[C@@H]1C(=O)N[C@H]1CCCC[C@@H]1C(=O)N[C@H](CC(=O)N[C@H]1CCCC[C@@H]1C(N)=O)Cc1ccccc1)NC(=O)[C@H]1CCCC[C@@H]1N [H14 LF]
3. NC(=O)CC[C@@H](CC(=O)N[C@H]1CCCC[C@@H]1C(N)=O)NC(=O)[C@H]1CCCC[C@@H]1NC(=O)[C@H]1CCCC[C@@H]1NC(=O)C[C@H](Cc1ccc(O)cc1)NC(=O)[C@H]1CCCC[C@@H]1N [H14 YQ]

Output:
1: 3 µM; 2: 3 µM; 3: 227 µM

// provenance: paper PMC8162404
